Test: chemical genetic growth profiling, strain panel (AID 1159580);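 note: tested at 20 µM; growth read once vehicle control cultures reached saturation at 30 °C; 1 = growth at the plate median or of vehicle wells; lower values mean less growth of the strain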
Conditions: S. cerevisiae deletion strains, growth OD, locus YBR023C, strain chs3, stronger effect = lower value
About 2,000 (36%) of roughly 5,500 compounds were called active. Inconclusive results (about 18%) are left out. Some of the results follow.
Response field label: string, one of true (normalized growth strictly below 1) or false.

Here are 3 molecules together with their reported answers.
CCCCCCOc1ccccc1C(N)=O :: true
CCCCOC(=O)c1ccc(N)cc1 :: true
CCN(CC)C(=O)c1cccc(C)c1 :: false

Alright, here's another molecule for you.
In: Problem: For the molecule "Cn1c(=O)c2[nH]cnc2n(C)c1=O" , is normalized growth under 1?
Out: false

* * *

Would you mind telling me the reported normalized growth of each entry?
Assay: chemical genetic growth profiling, strain panel (AID 1159580);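 note: tested at 20 µM; growth read once vehicle control cultures reached saturation at 30 °C; 1 = growth at the plate median or of vehicle wells; lower values mean less growth of the strain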
Details: S. cerevisiae deletion strains, growth OD, locus YOL006C, strain TOP1, stronger effect = lower value
Screen size: about 5,500 compounds; about 2,000 (36%) were called active. About 18% were inconclusive and are not listed. The list shows a part of the results.
Numbers only.

CCC(C)(C)C(=O)O[C@H]1C[C@@H](C)C=C2C=C[C@H](C)[C@H](CC[C@@H]3C[C@@H](O)CC(=O)O3)[C@H]21 :: 0.909
O=C(O)CN(CC(=O)O)Cc1cc2c(-c3ccccc3C(=O)O)c3cc(CN(CC(=O)O)CC(=O)O)c(=O)cc-3oc2cc1O :: 1
COCCCNC(=S)Nc1ccc(C)cc1C :: 0.923

Lab note: each compound below needs its normalized growth filled in.
1. N#CCC(=O)Nc1ccccn1
2. C#CCCCCCCCCCCCC(O)CC(O)CO (configuration not stated)
3. CC1=CC2C(CC1=O)C(C)=CCC2C(C)C (configuration not stated)
4. Cc1ccc(NC(=O)c2c(F)cccc2Cl)c(C(=O)Nc2ccc(F)cc2)c1
5. O=S1OCC2C(CO1)C1(Cl)C(Cl)=C(Cl)C2(Cl)C1(Cl)Cl (configuration not stated)
6. Clc1cccc(Cl)c1NC1=NCCN1
7. COC(=O)C1=C(C)NC(C)=C(C(=O)OC)C1c1ccc(-c2ccsc2C(=O)OC)o1
8. CC(=O)OCC(COC(C)=O)OC(C)=O

Out:
1. 1.07
2. 0.96
3. 0.683
4. 1.02
5. 0.822
6. 1.18
7. 1.06
8. 1.05

* * *

Assay: chemical genetic growth profiling, strain panel (AID 1159580);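 note: tested at 20 µM; growth read once vehicle control cultures reached saturation at 30 °C; 1 = growth at the plate median or of vehicle wells; lower values mean less growth of the strain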
Conditions: S. cerevisiae deletion strains, growth OD, locus YKL085W, strain MDH1, stronger effect = lower value
The campaign covered roughly 5,500 compounds. About 2,000 (36%) were called active. Another 18% or so got no clear call; they are omitted. Some of the results follow.
Response field label: string, one of Fulfilled (normalized growth strictly below 1) or Not fulfilled.

CC1=CC2C(CC1=O)C(C)=CCC2C(C)C (configuration not stated) :: Fulfilled
C=C1C(=O)O[C@@H]2C3O[C@]3(C)CC/C=C(\C)CC[C@@H]12 (some centres not stated) :: Fulfilled
C#CCCCCCCCCCCCC(O)CC(O)COC(C)=O (configuration not stated) :: Fulfilled
COc1ccc(CCN2CCC(Nc3nc4ccccc4n3Cc3ccc(F)cc3)CC2)cc1 :: Not fulfilled
COC(=O)C(C)c1ccc(C(=O)c2cccs2)cc1 (configuration not stated) :: Fulfilled
Cc1ccc(Cl)c(Nc2ccccc2C(=O)O)c1Cl :: Fulfilled
COc1c(OC)c2occc2c2oc(=O)ccc12 :: Fulfilled
CC(C)NNC(=O)c1ccncc1 :: Not fulfilled

In: Problem: For the compound "Cc1ccc(C)c(OCCCC(C)(C)C(=O)O)c1" , is normalized growth under 1?
Out: Fulfilled
